Reported values of growth for individual entries
# Test system: UACC-257 melanoma
# method_summary: NCI-60 one-dose screen, 48 h (100 = growth as untreated, 0 = no growth, -100 = all killed)
# experimental_context: 10 µM
This is part of a sample that, as a whole, favours compounds with a hit. Of some 83,000 tested, about 20% had one in any assay. Calls of active or inactive are those of the source. How the source made its calls: active means growth percent below 10; inactive means the rest.

Example compounds with recorded growth:
c1ccc(C(=C(c2ccc(OCCN3CCCCC3)cc2)c2ccc(OCCN3CCCCC3)cc2)C2CCCC2)cc1: -34.2% (active)
Cc1ccc(/C=C(\C#N)n2nnc3c(F)cccc32)cc1: 38.6% (inactive)

Item `Cc1ccc2nc3c(nc2c1)c1cc(I)ccc1n3CCN(C)C` with UACC-257 melanoma - growth?
41.9% (inactive)
